tested on: Mycobacterium tuberculosis; test: Potency index, Ratio of ethambutol MIC to test compound MIC for antitubercular activity against PAS/INH/EMB/RMP-resistant Mycobacterium tuberculosis Spec.210 assessed as inhibition of microbial growth incubated for 1 week by MABA method; type: functional; settings: time 1 weeks
Measured Ratio, listed per entry for reference.
Form rule: numeric answer, no unit written next to it.

Example cases with answers are listed next.
record_smiles=COc1ccc(Nc2nnnn2-c2cccc(Cl)c2)cc1 tgt="Mycobacterium tuberculosis" test_value=2
record_smiles=COc1ccc(Nc2nnnn2-c2ccc(F)cc2)cc1 tgt="Mycobacterium tuberculosis" test_value=2
record_smiles=COc1ccc(-n2nnnc2Nc2cccc(F)c2)cc1 tgt="Mycobacterium tuberculosis" test_value=2
record_smiles=COc1ccc(-n2nnnc2Nc2ccc(Br)cc2)cc1 tgt="Mycobacterium tuberculosis" test_value=16
record_smiles=COc1ccc(-n2nnnc2Nc2cccc(Br)c2)cc1 tgt="Mycobacterium tuberculosis" test_value=16

If you can, please state the reported Ratio value of COc1ccc(-n2nnnc2Nc2ccccc2Cl)cc1 . 2

Which Ratio is reported for this compound? COc1ccc(Nc2nnnn2-c2ccc(Cl)cc2)cc1 2

Entry COc1ccc(Nc2nnnn2-c2ccccc2Cl)cc1 : reported Ratio = ? 2
